These entries and their values trace back to patent US20190248900A1.

Target: T1, M1-1
T1 construct: also called PD1 mutant M1-1
Test: ELISA, 1 ug/ml
Please respond with reported OD490 for every item in the list.
One number for each entry.

# binder, OD490
measured = [
    ("PD1-41C9 (antibody, V domains shown, scFv-phage in the screening ELISA; whole IgG in the other assays) VH: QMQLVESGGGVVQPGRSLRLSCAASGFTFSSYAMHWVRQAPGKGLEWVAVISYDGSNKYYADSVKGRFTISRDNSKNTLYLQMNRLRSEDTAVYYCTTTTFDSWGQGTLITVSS VL: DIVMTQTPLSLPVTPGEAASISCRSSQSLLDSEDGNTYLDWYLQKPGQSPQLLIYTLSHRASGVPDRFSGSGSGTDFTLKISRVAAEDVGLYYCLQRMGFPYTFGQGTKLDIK", 3.1),
]

Please supply OD490 for each of the following items, keeping them in order.
1. PD1-52E8 (antibody, V domains shown, scFv-phage in the screening ELISA; whole IgG in the other assays) VH: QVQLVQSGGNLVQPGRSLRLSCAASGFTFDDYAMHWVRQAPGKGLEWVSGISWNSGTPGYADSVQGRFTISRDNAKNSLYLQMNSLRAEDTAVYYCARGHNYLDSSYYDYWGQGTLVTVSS VL: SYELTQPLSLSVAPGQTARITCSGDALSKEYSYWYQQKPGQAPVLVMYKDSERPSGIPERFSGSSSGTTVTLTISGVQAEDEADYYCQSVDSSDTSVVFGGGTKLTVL
2. PD1-45D6 (antibody, V domains shown, scFv-phage in the screening ELISA; whole IgG in the other assays) VH: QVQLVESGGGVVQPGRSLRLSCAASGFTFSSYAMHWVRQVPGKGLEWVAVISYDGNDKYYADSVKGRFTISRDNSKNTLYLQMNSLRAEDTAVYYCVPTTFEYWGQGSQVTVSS VL: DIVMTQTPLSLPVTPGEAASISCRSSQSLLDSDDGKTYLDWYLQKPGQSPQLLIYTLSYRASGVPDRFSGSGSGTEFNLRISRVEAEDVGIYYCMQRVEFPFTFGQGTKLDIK
3. PD1-49A2 (antibody, V domains shown, scFv-phage in the screening ELISA; whole IgG in the other assays; also called Parent 49A2) VH: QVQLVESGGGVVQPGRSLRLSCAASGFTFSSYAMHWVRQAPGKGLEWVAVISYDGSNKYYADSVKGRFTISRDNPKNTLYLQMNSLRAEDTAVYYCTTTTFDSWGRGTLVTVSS VL: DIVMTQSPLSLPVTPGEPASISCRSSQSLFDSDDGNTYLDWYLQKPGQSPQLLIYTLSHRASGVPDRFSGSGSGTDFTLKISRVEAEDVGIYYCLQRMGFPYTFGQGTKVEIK

[1.5, 3.8, 3.4]
